System: UACC-62 melanoma
Assay: NCI tumour cell line growth inhibition, 48 h
readout-label: TGI

Known TGI results, listed for orientation:
Nc1nc(N)c2ncn(-c3ccc(Cl)c(Cl)c3)c2n1    43 µM
FC(F)(F)c1ccc2c(c1)nc(Cc1ccc(Cl)c(Cl)c1)n2CC1CCCN2CCCCC12 (stereo unspecified)    30.2 µM
CCOC(=O)C1(Br)C(c2ccccc2)NC(=O)N(C2OC(COC(=O)c3ccccc3)C(OC(=O)c3ccccc3)C2OC(=O)c2ccccc2)C1(C)Br (stereo unspecified)    60.1 µM
CCCC(=O)OCC1(CO)C/C(=C/CC(C(C)C)C(C)C)C(=O)O1 (stereo unspecified)    > 100 µM
C=CCOc1ccc(C2(c3ccc(OCC=C)cc3)C(=O)Nc3ccccc32)cc1    > 10 µM

N#C/C(=C\c1ccc(F)cc1)c1nc2ccccc2c(=O)[nH]1 yielded TGI of > 100 µM

Measured TGI, CN(C)CCN1C(=O)c2cccc3c(N)ccc(c23)C1=O : > 25 µM

Sample CSc1c(S(C)=O)[nH]c2cc(Br)cc(Br)c12 (stereo unspecified) ; TGI observed: 39.3 µM

C=CC1(c2ccccc2Cl)N/C(=C/OCC)CO1 (stereo unspecified) has a reported TGI of > 100 µM

The recorded TGI for Cc1cccc(Cl)c1NC(N)=S is > 100 µM

TGI reported for this compound CCOc1ccccc1NC(=O)C(=O)C(C(=O)c1ccc2ccccc2c1)C1OC(=O)c2ccccc21 (stereo unspecified) : 21.3 µM

---

System: RXF 393 renal
Experiment: NCI tumour cell line growth inhibition, 48 h
readout-label: log10(TGI) (log10 of the value in µM)
The common logarithm of TGI in µM is what is listed.

Recorded log10(TGI), per entry:
CN(CCCCN1CCCC1)CCCCN(C)C(=O)Cc1ccc(Cl)c(Cl)c1    1.41
C=C(C)[C@@H]1CC[C@]2(C(=O)Nc3ccccn3)CC[C@]3(C)[C@H](CC[C@@H]4[C@@]5(C)CCCNC(C)(C)[C@@H]5CC[C@]43C)[C@@H]12    0.51
NCCn1ccc(NC(c2ccccc2)(c2ccccc2)c2ccccc2)nc1=O    1.33
C=C1C(=O)OC2/C=C(\C)C(=O)CC3OC(C)(C)OC3(C)CC(OC(=O)/C(C)=C/C)C12 (stereo not given)    1.56
C=C(C)C(=O)OC1C(C(C)CCCO)=C(CO)CC2OC(=O)C(=C)C21 (stereo not given)    1.43
N=C(N)c1ccc(-c2ccc(-c3cncc4ccccc34)s2)cc1F    0.56
CSC1=Nc2c(c(C)c(-c3ccccc3)n2CCCCl)C2=NC(=O)CN12    1.47
COc1ccc2c(c1)C(=O)c1c-2c(OCCN(C)C)nc2cc(OC)ccc12    0.66
CCN1/C(=C/C=C/C=C/c2sc3ccccc3[n+]2CC)Sc2ccccc21    0.40
COc1cc(CNc2nc3cc(N)cc(N)c3nc2-c2ccccc2)cc(OC)c1OC    1.30

Item CC(C)(C)OC(=O)N1CC(Cn2cc(C(F)(F)F)c3c(Cl)ncnc32)C1 ; assay system RXF 393 renal; log10(TGI) reported as 0.56

Item: CC(=O)Nc1ccc(-c2nc3ccccc3s2)cc1Cl | System: RXF 393 renal | log10(TGI): 1.96

log10(TGI) of Cc1cc(Nc2cc(CN3CCOCC3)c3nc(C)c(Cc4ccc(Cl)cc4F)n3n2)n[nH]1 , assay on RXF 393 renal, is 0.33

Entry CN(C)c1ccc(/C=C/c2ccnc3ccc4ccccc4c23)cc1 ; assay system RXF 393 renal; log10(TGI) recorded at 1.65

// assay RXF 393 renal, entry Fc1c[c-]c(-c2ccccn2)c(F)c1.[CH3-].[Pt+2].c1ccc([PH+](c2ccccc2)c2ccccn2)cc1 , log10(TGI) value = 0.44

Noted log10(TGI) for C[C@H](C(=O)N[C@@H](Cc1ccc(-c2ccccc2)cc1)C(=O)NC1CC(C)(C)N(C)C(C)(C)C1)c1ccc(-c2ccccc2)c(F)c1 , tested on RXF 393 renal: 0.36
